target: Receptor tyrosine-protein kinase erbB-2 (Homo sapiens) (UniProt P04626); experiment: reducers of endogenous Her2 protein level, primary screen, SKBR3 breast tumor cells, AlphaScreen, ATP viability (AID 461); conditions: 18-24 h, at 10 µM, stronger effect = lower value;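 note: lower value means less Her2 protein in the cells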
Sequence (P04626 whole entry, looked up): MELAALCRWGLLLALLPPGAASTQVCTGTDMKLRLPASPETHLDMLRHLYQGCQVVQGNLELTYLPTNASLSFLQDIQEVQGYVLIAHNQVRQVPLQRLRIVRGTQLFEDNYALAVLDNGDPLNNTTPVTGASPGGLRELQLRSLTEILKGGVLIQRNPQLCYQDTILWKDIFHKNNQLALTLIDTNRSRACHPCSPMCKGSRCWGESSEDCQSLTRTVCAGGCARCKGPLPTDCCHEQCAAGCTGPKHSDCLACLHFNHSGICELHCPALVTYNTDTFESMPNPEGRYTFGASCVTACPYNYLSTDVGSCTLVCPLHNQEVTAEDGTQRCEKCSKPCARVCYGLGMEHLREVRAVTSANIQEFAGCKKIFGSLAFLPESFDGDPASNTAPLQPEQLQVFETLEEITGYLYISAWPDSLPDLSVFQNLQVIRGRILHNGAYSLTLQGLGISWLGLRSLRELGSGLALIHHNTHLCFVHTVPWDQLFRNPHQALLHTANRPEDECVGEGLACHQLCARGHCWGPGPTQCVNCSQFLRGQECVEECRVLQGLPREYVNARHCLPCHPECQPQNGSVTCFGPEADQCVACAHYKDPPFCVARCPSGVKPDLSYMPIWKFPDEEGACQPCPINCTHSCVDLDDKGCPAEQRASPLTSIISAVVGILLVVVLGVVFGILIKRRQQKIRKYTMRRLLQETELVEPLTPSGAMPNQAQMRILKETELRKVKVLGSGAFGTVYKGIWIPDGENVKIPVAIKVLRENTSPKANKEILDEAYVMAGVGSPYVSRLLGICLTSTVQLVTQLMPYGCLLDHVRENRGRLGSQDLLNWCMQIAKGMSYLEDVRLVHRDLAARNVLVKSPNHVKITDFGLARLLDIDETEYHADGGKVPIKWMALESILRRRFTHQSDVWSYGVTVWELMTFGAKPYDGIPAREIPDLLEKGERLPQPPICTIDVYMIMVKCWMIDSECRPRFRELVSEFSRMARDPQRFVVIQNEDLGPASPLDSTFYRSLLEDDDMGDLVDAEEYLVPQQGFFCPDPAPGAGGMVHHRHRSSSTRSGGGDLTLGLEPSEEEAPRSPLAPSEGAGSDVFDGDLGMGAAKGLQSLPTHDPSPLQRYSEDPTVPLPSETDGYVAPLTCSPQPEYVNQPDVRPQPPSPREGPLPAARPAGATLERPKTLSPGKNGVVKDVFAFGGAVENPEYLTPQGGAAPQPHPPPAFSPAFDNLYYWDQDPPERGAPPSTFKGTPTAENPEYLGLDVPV
Measured Endpoint: Her2 level (%)
Give bare numbers, in %.

Study these solved cases before continuing.
> print(dat)
                                   molecule  result
1  CC(=O)N1CCC2(CC1)CC(=O)c1cc(OCC(=O)NCc3ccco3)ccc1O2     112
2  CCOc1ncccc1C(=O)OCC(=O)N1CC(=O)Nc2ccccc21      97
3  CCOC(=O)CSc1nc2c(c(-c3ccc(C)o3)c1C#N)CCCC2    88.5

Dear colleague, could you please provide Her2 level for the molecules listed below?
1. COc1ccccc1C(=O)Nc1ccc(S(=O)(=O)N2CCCC2)cc1
2. O=S(=O)(CCOc1ccccc1)c1nc2ccccc2[nH]1
3. CCOC(=O)Cn1nnnc1C(C(C)C)N(Cc1cc2c(C)cc(C)cc2[nH]c1=O)C1CCCC1 (stereo unspecified)
4. CCC1CCCCN1S(=O)(=O)c1ccc(C(=O)Nc2nnc(-c3cccs3)o2)cc1 (stereo unspecified)
5. Cc1nnc(SCc2cc(=O)[nH]c(N3CCCCC3)n2)s1
6. CCN1CCN(c2ncc(C(=O)N3CCN(c4ccccc4OC)CC3)c3ccccc23)CC1
7. O=[n+]1c2c(n([O-])c3c1CCCC3)CCCC2
8. COc1ccc2cnn(-c3ccccc3)c(=O)c2c1OC

# output
1: 76.5; 2: 18.5; 3: 102; 4: 91.5; 5: 86.5; 6: 87.5; 7: 91; 8: 91

* * *

assay: reversal of MRP1-mediated doxorubicin resistance, pilot screen, H69AR cells, doxorubicin co-treatment (AID 601); conditions: H69AR cells, CellTiter-Glo, 72 h; compound alone cytotoxicity; at 10 µM
Provide the recorded viability for the entries that follow.
Give bare numbers, in %.

Study these solved cases before continuing.
> print(dat)
                                   compound  units.symbol  result
1          CCCCn1nnc(NC(=O)Cc2ccc(Cl)cc2)n1             %      90
2  O=C(c1cc2ccccc2oc1=O)N1CCSC1c1ccco1 (stereo not given)             %    91.5
3  COc1ccc(N2C(=O)CC(NC3CC3)C2=O)cc1 (stereo not given)             %    91.2
4  CC(=O)Nc1ccc(OCC(O)Cn2nc(C)nc2C)cc1 (stereo not given)             %      91

Proceeding to the next compound to report its viability.
So for CCOc1ccccc1N(C(=O)Cn1nnnc1-c1ccc(C)o1)C(CC)C(=O)NC(C)(C)C (stereo not given) , the logged viability turned out to be 88.5

* * *

Provide the recorded viability for the entries that follow.
test: SK-BR-3 cell growth inhibitors, pilot screen, 24 h, human (AID 572); conditions: SK-BR-3 viability, CellTiter-Glo luminescence, at 10 µM, stronger effect = lower value;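 note: compound exposure lasted between 18 and 24 h rather than exactly 24 h; 100% = carrier-treated control wells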
Answers are plain numbers, in %.

Study these solved cases before continuing.
> print(dat)
                                   compound  units.symbol  result
1  COc1ccc(N2CCN(CCCNC(=O)CC3Oc4ccc(C)cc4NC3=O)CC2)cc1 (stereo not given)             %    87.5
2  CC(C(=O)N1CCc2ccccc21)N1CCc2ccccc2C1 (stereo not given)             %      82
3                COc1cccc(NC(=O)Nc2cccs2)c1             %      93
4  Cc1oc(-c2ccccc2F)nc1CS(=O)(=O)CC(=O)N1CCN(Cc2ccccc2)CC1             %    77.5
5    COc1ccc2c(C(=O)CN(C)C3CCCCC3)c[nH]c2c1             %     115

Dear colleague, could you please provide viability for the compounds listed below?
1. COc1ccccc1N1CCN(CCCNC(=O)Nc2ccccc2)CC1
2. c1cncc(-c2nnc(-c3ccco3)o2)c1
3. CSc1nc(N2CCOCC2)c2ccccc2n1
4. CCOC(=O)CSC1=Nc2ccccc2C2=NC(CC(=O)NCc3ccc(OC)cc3)C(=O)N12 (stereo not given)

# output
[129, 106, 110, 117]

So for CC(C)CNS(=O)(=O)c1ccc(CCC(=O)N2CCOCC2)cc1 , the logged viability turned out to be 87.5

Data provenance: PubChem BioAssay
